- Test system: Dd2
- Measurement Notes: qHTS profiling for inhibitors of Plasmodium falciparum proliferation (AID 504749); further: nearly all actives have a fitted effect of over 60% in size
- Condition Label: P. falciparum in erythrocytes, SYBR Green DNA, 72 h; series mostly up to 28.7 µM
- Method: NIH National Institute of Allergy and Infectious Diseases [NIAID] NIH Chemical Genomics Center [NCGC] […] Because mature erythrocytes lack DNA, only Plasmodium-derived DNA is detected. NCGC Assay Protocol Summary: The SYBR Green viability assay was adapted from a method described previously (Plouffe et al., 2008). […] The following morning, fluorescence intensity at 485(14) nm excitation and 535(25) nm emission wavelengths was measured on an EnVision (Perkin Elmer) plate reader. […]
Records with an inconclusive call do not appear. The source made the active and inactive calls. The call rests on the fitted dose curve; in most records, active means well fitted inhibition curve with a large enough effect; inconclusive means small, poorly fitted or top-dose-only effect; inactive means flat fitted curve, though single readings scatter.
Outcomes: 1 = active, -1 = inactive

Compound: COc1ccc2[nH]c(S(=O)Cc3ncc(C)c(OC)c3C)nc2n1 (stereo unspecified)
Answer Label: 1
--
Compound: Oc1cccc(O)c1
Answer Label: -1
--
Compound: Oc1ccc(C(O)CNCCCCCCNCC(O)c2ccc(O)c(O)c2)cc1O (stereo unspecified)
Answer Label: 1
--
Compound: O=C(CCCN1CCN(c2ccccn2)CC1)c1ccc(F)cc1
Answer Label: -1
--
Compound: O=S(=O)(O)NC1CCCCC1
Answer Label: -1
--
Compound: O=Cc1ccccc1C=O
Answer Label: -1
--
Compound: CCCCCCCCCCCCCCCCCCOCC(O)CO (stereo unspecified)
Answer Label: -1
--
Compound: CCCCOC(=O)c1ccc(O)cc1
Answer Label: -1
--
Compound: O=C(O)CC(O)C(=O)O (stereo unspecified)
Answer Label: -1
--
Compound: CCN(CC)CCNC(C(=O)OCCC(C)C)c1ccccc1 (stereo unspecified)
Answer Label: 1
--
Compound: [O-][n+]1cccc(CO)c1
Answer Label: -1
--
Compound: O=c1cc[nH]c(=O)[nH]1
Answer Label: -1
--
Compound: NS(=O)(=O)c1cc2c(cc1Cl)NC(CSCc1ccccc1)=NS2(=O)=O
Answer Label: -1
--
Compound: CCCCCCCCCCCCOS(=O)(=O)O
Answer Label: -1
--
Compound: CC(C)(C)C(=O)NCCCC(=O)O
Answer Label: -1
--
Compound: O=C(O)c1ccccn1
Answer Label: -1
--
Compound: Cc1cccc(Nc2cc(Cl)nc(SCC(=O)O)n2)c1C
Answer Label: -1
--
Compound: CC(O)CN(CCN(CC(C)O)CC(C)O)CC(C)O (stereo unspecified)
Answer Label: -1
--
Compound: O=c1cc[nH]c(=S)[nH]1
Answer Label: -1
--
Compound: CCN(CC)CCNC(=O)c1c(C)[nH]c(/C=C2\C(=O)Nc3ccc(F)cc32)c1C
Answer Label: 1
--
Compound: CC1(C)OC(=O)NC1=O
Answer Label: -1
--
Compound: CCCCCCCCCCCCCCCC(=O)NCCO
Answer Label: -1
--
Compound: CCC(=O)Nc1ccc(O)cc1
Answer Label: -1
--
Compound: C[C@H](N)[C@H](O)c1cccc(O)c1
Answer Label: -1
--
Compound: NC(CSCC(=O)O)C(=O)O (stereo unspecified)
Answer Label: -1
--
Compound: Cc1ccc2nc(N)[nH]c(=O)c2c1Sc1ccncc1
Answer Label: 1

----------
- Tested on: AA1029
- Measurement Notes: qHTS profiling for inhibitors of Plasmodium falciparum proliferation (AID 504749); further: nearly all actives have a fitted effect of over 60% in size
- Condition Label: P. falciparum in erythrocytes, SYBR Green DNA, 72 h; series mostly up to 28.7 µM
Results filed as inconclusive are left out. Activity calls are given as the source filed them. Calls come from the whole dose curve; as a rule, active = well fitted inhibition curve with a large enough effect; inconclusive = small, poorly fitted or top-dose-only effect; inactive = flat fitted curve, though single readings scatter.
Classes used: active, inactive

Molecule: O=c1cc[nH]c(=S)[nH]1
Measured Target: AA1029
Answer Label: inactive

Molecule: Cc1cc(N)c2ccccc2[n+]1CCCCCCCCCC[n+]1c(C)cc(N)c2ccccc21
Measured Target: AA1029
Answer Label: active

Molecule: Cc1cc2c(cc1S(N)(=O)=O)S(=O)(=O)CCC2
Measured Target: AA1029
Answer Label: inactive

Molecule: CCCCCCCCCCCCCCCC(=O)NCCO
Measured Target: AA1029
Answer Label: inactive

Molecule: CCOC(=O)[C@H](CCc1ccccc1)N[C@@H](C)C(=O)N1C(=O)N(C)C[C@H]1C(=O)O
Measured Target: AA1029
Answer Label: inactive

Molecule: CCCCC(CC)COC(=O)c1ccccc1O (centres undefined)
Measured Target: AA1029
Answer Label: inactive

Molecule: O=C(CCCN1CCN(c2ccccn2)CC1)c1ccc(F)cc1
Measured Target: AA1029
Answer Label: inactive

Molecule: NCCNCCNCCNCCN
Measured Target: AA1029
Answer Label: inactive

Molecule: CCN(CC)CCNC(=O)c1cc(Cl)c(N)cc1OC
Measured Target: AA1029
Answer Label: inactive

Molecule: Nc1nc2c(ncn2CCC(CO)CO)c(=O)[nH]1
Measured Target: AA1029
Answer Label: inactive

Molecule: CCCn1cnc2c1c(=O)n(CCCCC(C)=O)c(=O)n2C
Measured Target: AA1029
Answer Label: inactive

Molecule: CCN(CC)CCNC(=O)c1c(C)[nH]c(/C=C2\C(=O)Nc3ccc(F)cc32)c1C
Measured Target: AA1029
Answer Label: active

Molecule: CC1(C)[C@@H]2CC[C@@]1(C)C(=O)C2
Measured Target: AA1029
Answer Label: inactive

Molecule: [Cl][In]([Cl])[Cl]
Measured Target: AA1029
Answer Label: inactive

Molecule: Cc1ccc2nc(N)[nH]c(=O)c2c1Sc1ccncc1
Measured Target: AA1029
Answer Label: active

Molecule: Nc1ccc(S(=O)(=O)Nc2ccccc2)cc1
Measured Target: AA1029
Answer Label: inactive

Molecule: NC(=O)NC(=O)Cc1ccccc1
Measured Target: AA1029
Answer Label: inactive

Molecule: C[C@@H]1CN(c2c(F)c(F)c3c(=O)c(C(=O)O)cn(C4CC4)c3c2F)C[C@H](C)N1
Measured Target: AA1029
Answer Label: inactive

Molecule: CCC(=O)c1ccc(O)cc1
Measured Target: AA1029
Answer Label: inactive
